System: Escherichia coli
Assay: Antibacterial activity against Escherichia coli K12 JM109 overexpressing beta-lactamase
Type: functional
Threshold 100 µM: MIC strictly smaller gives 1, otherwise 0.

# SMILES CODE, CATEGORY
measured = [
    ("O=[N+]([O-])c1cccc(NCc2ccc3sc(B(O)O)cc3c2)c1", 1),
    ("OB(O)c1cc2ccccc2s1", 0),
    ("O=CN(C=O)Cc1ccc2sc(B(O)O)cc2c1", 1),
    ("CC(=O)c1ccc(NCc2ccc3sc(B(O)O)cc3c2)cc1", 0),
    ("Cc1ccc2sc(B(O)O)cc2c1", 0),
]

---

The entries below are paired with their reported MIC.
Test system: Escherichia coli
Test: Antibacterial activity against Escherichia coli K12 JM109 overexpressing beta-lactamase
Type: functional

# SMILES CODE, OUTPUT UNIT, MIC
data = [
    ("OB(O)c1cc2cc(CSc3ccccc3)ccc2s1", "µM", 84),
    ("OB(O)c1cc2cc(Cn3ccnc3)ccc2s1", "µM", 94),
    ("O=C(O)CNCc1ccc2sc(B(O)O)cc2c1", "µM", 92),
    ("Nn1cn[n+](Cc2ccc3sc(B(O)O)cc3c2)c1", "µM", 117),
    ("OB(O)c1cc2cc(CNc3ccc(Cl)c(Cl)c3)ccc2s1", "µM", 147),
]

Data provenance: ChEMBL document CHEMBL1138258
